Recorded measurements of MFI ratio to WT (ΔWT), one per entry
Molecular target: T1, human ICOS, full-length, expressed on transfected Expi293 cells (human, UniProt Q9Y6W8 21-199)
T1 construct: whole, on cells
T1 sequence (looked up): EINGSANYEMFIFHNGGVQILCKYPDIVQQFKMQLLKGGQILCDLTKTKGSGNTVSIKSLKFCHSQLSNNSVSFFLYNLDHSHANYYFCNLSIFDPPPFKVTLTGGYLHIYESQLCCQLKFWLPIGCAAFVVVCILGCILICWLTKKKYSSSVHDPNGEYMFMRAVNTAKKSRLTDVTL
Assay: flow cytometry, 100 nM, Expi293 cells with human ICOS

Entry under test: variant ICOSL IgV-Fc fusion N52M/N57H/Q100S (Fc fusion) DTQEKEVRAMVGSDVELSCACPEGSRFDLNDVYVYWQTSESKTVVTYHIPQMSSLEHVDSRYRNRALMSPAGMLRGDFSLRLFNVTPQDEQKFHCLVLSSSLGFQEVLSVEVTLHVAANFSVGSGGGGSEPKSSDKTHTCPPCPAPEAEGAPSVFLFPPKPKDTLMISRTPEVTCVVVDVSHEDPEVKFNWYVDGVEVHNAKTKPREEQYNSTYRVVSVLTVLHQDWLNGKEYKCKVSNKALPAPIEKTISKAKGQPREPQVYTLPPSREEMTKNQVSLTCLVKGFYPSDIAVEWESNGQPENNYKTTPPVLDSDGSFFLYSKLTVDKSRWQQGNVFSCSVMHEALHNHYTQKSLSLSPG . Its MFI ratio to WT (ΔWT) was 1.25 fold

We now examine a further binder.
Entry under test: variant ICOSL IgV-Fc fusion N52L/N57H/Q100R (Fc fusion) DTQEKEVRAMVGSDVELSCACPEGSRFDLNDVYVYWQTSESKTVVTYHIPQLSSLEHVDSRYRNRALMSPAGMLRGDFSLRLFNVTPQDEQKFHCLVLSRSLGFQEVLSVEVTLHVAANFSVGSGGGGSEPKSSDKTHTCPPCPAPEAEGAPSVFLFPPKPKDTLMISRTPEVTCVVVDVSHEDPEVKFNWYVDGVEVHNAKTKPREEQYNSTYRVVSVLTVLHQDWLNGKEYKCKVSNKALPAPIEKTISKAKGQPREPQVYTLPPSREEMTKNQVSLTCLVKGFYPSDIAVEWESNGQPENNYKTTPPVLDSDGSFFLYSKLTVDKSRWQQGNVFSCSVMHEALHNHYTQKSLSLSPG . Its MFI ratio to WT (ΔWT) was 1.18 fold
